target: T1, β2-Microglobulin (β2M) (Homo sapiens, UniProt P61769); assay: SPR; Biacore T200; β2M immobilized on a CM5 chip to 150 RU; 2-fold serial diluted VHH at 30 μL/min in HBS-EP+; 25 °C; 1:1 binding model; VHH samples after incubation with NHS-Fluo at molar ratio 0 (negative control), 1, 5 or 20 and ultrafiltration; conditions: both partners purified
T1 construct: β2-microglobulin, human (the title says anti-human β2-microglobulin VHHs); Probably the mature protein without the signal peptide (surmised); also called antigen β2M; human β2-microglobulin; source: expressed and purified as previously described [27]
T1 sequence (P61769 21-119): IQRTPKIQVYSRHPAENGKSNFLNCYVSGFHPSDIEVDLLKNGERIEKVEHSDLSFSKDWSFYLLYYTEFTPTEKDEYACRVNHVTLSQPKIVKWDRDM
pKd: −log10 of the molar value.
Threshold check on pKd: at or above 6 gives true, strictly below gives false.

NB-1 modified by a 20 fold amount of NHS-Fluo (VHH, VHH domain as in m2 (NB-1); flexible (G4S)4 linker between the VHH domain and the 6xHis-tag, written out from the printed formula; also called labeled NB-1; modified NB-1; source: E. coli SHuffle T7, purified (HisTrap HP), then modified with NHS-Fluo (2 h, 4 °C), ultrafiltration) VHH: QVQLVESGGGLVQAGGSLRLSCAASGSTLDSYYIGWFRQAPGKEREGVSCISSSGNSIRYVDSVKDRFTISRDNGKNTAYLHINSLRPEDTAVYYCAASRRGRKPGLPCSLVRERYAYWGQGTQVTVSS ... true

Q: Does the reported pKd for NB-1 (anti-β2M VHH, unmodified), VHH-(G4S)4-His6 (VHH, VHH domain of NB-1; flexible (G4S)4 linker between the VHH domain and the 6xHis-tag, written out from the printed formula; Homology model built on template PDB 4KDT (GMQE 0.99); also called NB-1-origin; NB-1-0; source: E. coli SHuffle T7, purified (HisTrap HP)) VHH: QVQLVESGGGLVQAGGSLRLSCAASGSTLDSYYIGWFRQAPGKEREGVSCISSSGNSIRYVDSVKDRFTISRDNGKNTAYLHINSLRPEDTAVYYCAASRRGRKPGLPCSLVRERYAYWGQGTQVTVSS fall at or above the 6 mark?
Ans: true

Q: Does the reported pKd for NB-3 modified by a 20 fold amount of NHS-Fluo (VHH, VHH domain as in m6 (NB-3); flexible (G4S)4 linker between the VHH domain and the 6xHis-tag, written out from the printed formula; Heterogeneous product of random amino modification; also called modified NB-3; NB-3 20:1; source: E. coli SHuffle T7, purified (HisTrap HP), then modified with NHS-Fluo (2 h, 4 °C), ultrafiltration) VHH: QVQLVESGGGLVQPGGSLRLSCAASGFSLDYYAIGWFRQAPGKEREGVSCISSSDDSTYYAGSVKGRFKISRDNAKSTVYLQMNSLKPEDSAVYYCAALHSGNYYYTPSYICDAEMDYWGKGTLVTVSS fall at or above the 6 mark?
Ans: false

Q: Does the reported pKd for NB-2 modified by a 20 fold amount of NHS-Fluo (VHH, VHH domain as in m4 (NB-2); flexible (G4S)4 linker between the VHH domain and the 6xHis-tag, written out from the printed formula; Heterogeneous product of random amino modification; also called modified NB-2; NB-2 20:1; source: E. coli SHuffle T7, purified (HisTrap HP), then modified with NHS-Fluo (2 h, 4 °C), ultrafiltration) VHH: QVQLVESGGGLVQHGGSLRLSCAASGSAFSTYSMTWHRQAPGKGREWVAGVDRSNSDTNYADSVKGRFTIYRDNAQNTVYLRMNSLKPEDTAVYYCSAERLDGSVRREYWGQGTQVTVSS fall at or above the 6 mark?
Ans: false

Reference for the values: paper PMC6680903
